# experimental-target: Smoothened (Mus musculus)
# procedure-text: Antagonist activity at Smo receptor
recorded-endpoint: IC50 (nM)

(1) COc1cc(C(=O)NC(=O)Nc2cccc(NC(=O)c3ccccc3)c2)cc(OC)c1OC
(2) COc1cc(C(=O)NC(=N)Nc2cccc(NC(=O)c3ccccc3)c2)cc(OC)c1OC
Form field 'greater IC50' accepts 1 or 2 ; which applies? Bench note: the answer is the label of the chosen record.
2
(2: 290 nM, 1: 160 nM)

====

# experimental-target: UniProt:P56726
# Sequence (P56726 whole entry, looked up): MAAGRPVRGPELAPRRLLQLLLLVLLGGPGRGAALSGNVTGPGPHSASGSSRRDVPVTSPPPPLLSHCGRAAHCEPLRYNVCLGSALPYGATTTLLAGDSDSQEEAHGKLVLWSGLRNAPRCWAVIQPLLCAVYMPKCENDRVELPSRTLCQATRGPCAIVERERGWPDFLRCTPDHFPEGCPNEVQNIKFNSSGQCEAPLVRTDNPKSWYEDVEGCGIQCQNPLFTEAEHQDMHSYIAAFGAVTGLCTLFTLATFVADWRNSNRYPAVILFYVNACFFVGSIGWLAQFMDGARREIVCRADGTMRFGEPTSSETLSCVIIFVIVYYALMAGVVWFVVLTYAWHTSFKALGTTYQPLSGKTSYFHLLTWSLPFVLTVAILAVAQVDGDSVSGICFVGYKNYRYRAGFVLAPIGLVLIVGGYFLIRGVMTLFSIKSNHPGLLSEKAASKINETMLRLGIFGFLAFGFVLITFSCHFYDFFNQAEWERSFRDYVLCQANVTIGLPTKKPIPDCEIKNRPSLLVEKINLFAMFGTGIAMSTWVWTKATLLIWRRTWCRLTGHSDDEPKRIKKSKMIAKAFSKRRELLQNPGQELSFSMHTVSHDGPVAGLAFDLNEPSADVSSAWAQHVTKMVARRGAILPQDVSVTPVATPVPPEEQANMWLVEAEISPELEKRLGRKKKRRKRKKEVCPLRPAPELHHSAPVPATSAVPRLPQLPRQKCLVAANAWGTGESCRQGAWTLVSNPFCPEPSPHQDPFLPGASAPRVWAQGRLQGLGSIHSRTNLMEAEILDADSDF
# procedure-text: Inhibition of Smo-mediated Hh signaling in mouse Shh-light2 cells by luciferase reporter gene assay
pIC50: −log10 of the molar value.
recorded-endpoint: pIC50

[
  {
    "structure": "COc1cc(C(=O)NC(=N)Nc2ccc(C)c(NC(=O)c3cccc(-c4ccccc4)c3)c2)cc(OC)c1OC",
    "pIC50": 6.96
  }
]

(P) COc1cc(C(=O)NC(=S)Nc2ccc(Cl)c(NC(=O)c3ccc(-c4ccccc4)cc3)c2)cc(OC)c1OC
(Q) COc1cc(C(=O)NC(=S)Nc2ccc(C)c(C(=O)Nc3ccccc3)c2)cc(OC)c1OC
Between P and Q , whose measured pIC50 reads higher? Reply with the label of the item you choose.
P
